- experimental-target: M2_G15 fusion protein (M2 muscarinic receptor fused with the G15 G-protein alpha-subunit) (Homo sapiens)
- Sequence (P08172 whole entry, the tested form may be a part): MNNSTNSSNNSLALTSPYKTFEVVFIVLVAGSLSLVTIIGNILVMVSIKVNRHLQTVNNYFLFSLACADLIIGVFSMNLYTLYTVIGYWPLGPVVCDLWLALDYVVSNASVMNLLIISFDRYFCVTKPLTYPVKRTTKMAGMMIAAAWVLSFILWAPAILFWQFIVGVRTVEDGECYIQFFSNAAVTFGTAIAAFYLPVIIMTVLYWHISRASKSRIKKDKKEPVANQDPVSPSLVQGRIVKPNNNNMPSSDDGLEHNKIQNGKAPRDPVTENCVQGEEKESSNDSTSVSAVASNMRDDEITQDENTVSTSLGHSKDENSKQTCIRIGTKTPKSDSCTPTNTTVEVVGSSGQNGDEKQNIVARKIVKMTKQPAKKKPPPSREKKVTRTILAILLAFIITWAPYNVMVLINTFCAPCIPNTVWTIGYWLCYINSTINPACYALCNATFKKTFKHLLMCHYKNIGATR
- Sequence (P30679 whole entry partner, the tested form may be a part): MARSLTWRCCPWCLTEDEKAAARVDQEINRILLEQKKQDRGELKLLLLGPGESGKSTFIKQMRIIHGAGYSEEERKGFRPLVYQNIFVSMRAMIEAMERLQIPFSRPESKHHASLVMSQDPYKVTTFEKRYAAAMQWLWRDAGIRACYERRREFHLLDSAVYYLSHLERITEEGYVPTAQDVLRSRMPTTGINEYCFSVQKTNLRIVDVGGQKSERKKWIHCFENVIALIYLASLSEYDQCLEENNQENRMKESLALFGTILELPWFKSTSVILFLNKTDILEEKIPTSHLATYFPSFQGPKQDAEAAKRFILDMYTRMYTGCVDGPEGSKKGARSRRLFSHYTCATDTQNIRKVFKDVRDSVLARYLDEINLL
- method: biochemical
readout-label: pKi
Answers are plain numbers, as −log10 of the molar value.

Exercise: # pKi lookup, item O=C1CCCN1CC#CCN1CCCC1 [oxotremorine]
Solution: 5.78

---

- experimental-target: M4_G15 fusion protein (M4 muscarinic receptor fused with the G15 G-protein alpha-subunit) (Homo sapiens)
- Sequence (P08173 whole entry, the tested form may be a part): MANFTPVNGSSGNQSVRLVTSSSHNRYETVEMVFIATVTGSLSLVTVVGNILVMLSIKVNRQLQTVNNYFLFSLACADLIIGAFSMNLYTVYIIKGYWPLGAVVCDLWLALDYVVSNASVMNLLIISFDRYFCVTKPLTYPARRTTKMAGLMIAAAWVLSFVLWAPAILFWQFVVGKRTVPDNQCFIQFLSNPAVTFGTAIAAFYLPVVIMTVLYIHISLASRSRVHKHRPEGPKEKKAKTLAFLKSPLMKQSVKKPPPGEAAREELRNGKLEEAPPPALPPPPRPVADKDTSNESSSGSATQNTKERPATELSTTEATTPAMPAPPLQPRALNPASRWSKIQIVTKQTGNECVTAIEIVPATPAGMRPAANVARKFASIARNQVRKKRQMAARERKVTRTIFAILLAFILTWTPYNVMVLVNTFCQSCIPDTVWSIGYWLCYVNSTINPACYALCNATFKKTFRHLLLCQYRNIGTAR
- Sequence (P30679 whole entry partner, the tested form may be a part): as the sequence (P30679 whole entry partner, the tested form may be a part) above
- method: biochemical
readout-label: Ki (nM)
Answers are plain numbers, in nM.

Exercise: # Ki lookup, item O=C1CCCN1CC#CCN1CCCC1
Solution: 1480
